assayText: Stability of JAK3 covalent inhibitors in human whole blood
Type: in vitro ADME
measurementParameters: both sexes, whole blood, 37° C., read-out: Human blood stability t1/2
endpointLabel: half-life at 1 μM (h)

Worked cases, half-life at 1 μM given:
- compound: "C=CC(=O)N1CCC(Oc2cnc3[nH]cc(C(=O)NC(C)C)c3n2)CC1 [Example 339]"
  half-life at 1 μM, h: 3.78
- compound: "C=CC(=O)N1CC[C@@H](Nc2cnc3[nH]cc(C(=O)NC(C)C)c3n2)[C@H](F)C1 [Example 291]"
  half-life at 1 μM, h: 3.27
- compound: "C=CC(=O)N1CCC(Nc2cnc3[nH]cc(C(=O)N[C@H]4CC[C@H](F)C4)c3n2)CC1 [Example 247]"
  half-life at 1 μM, h: 4.53
- compound: "C=CC(=O)N1CCC(C)(Nc2cnc3[nH]cc(C(=O)NC(C)C)c3n2)CC1 [Example 318]"
  half-life at 1 μM, h: 5.87
- compound: "C=CC(=O)N1C[C@@H](C)C[C@@H](Nc2ncnc3[nH]ccc23)C1 (racemic) [Example 22]"
  half-life at 1 μM, h: 5.78
- compound: "C=CC(=O)N1C[C@H](C)C[C@H](Nc2ncnc3[nH]ccc23)C1 [Example 128]"
  half-life at 1 μM, h: 5.07

1 = C=CC(=O)N1CCC(Nc2cnc3[nH]cc(C(=O)NCCCC)c3n2)CC1 [Example 269]
2 = C=CC(=O)N1C[C@H](Nc2ncnc3[nH]ccc23)C[C@H](N(C)C)C1 [Example 57]
3 = C=CC(=O)N1CCC[C@@H](Nc2ncnc3[nH]cc(CC)c23)C1 [Example 44]
4 = O=C(/C=C/C(F)(F)F)N1CC[C@@H]2CCN(c3ncnc4[nH]ccc34)[C@@H]2C1 [Example 81]
Task for the reader: rank each entry by its half-life at 1 μM, from the minimum upward. Reply with the labels, ordered as the question asks.
4, 2, 3, 1

a = C=CC(=O)N1CC[C@@H](F)[C@@H](Nc2ncnc3[nH]ccc23)C1 [Example 54]
b = C=CC(=O)N1CC[C@@H](Nc2cnc3[nH]cc(C(=O)NC(C)C)c3n2)[C@H](OC)C1 [Example 305]
c = C=CC(=O)N1CCC(Nc2cnc3[nH]cc(C(=O)NCC(C)(C)C)c3n2)CC1 [Example 271]
Ordering criterion: half-life at 1 μM; begin with the maximum. Rank the items, then write their labels in that order.
b, a, c

A = C=CC(=O)N1CCC(Nc2cnc3[nH]cc(C(=O)N[C@H](C)COC)c3n2)CC1 [Example 268]
B = C=CC(=O)N1CC[C@@H]2CCN(c3ncnc4[nH]ccc34)[C@@H]2C1 (single isomer, unassigned) [Example 8]
Kindly identify which of A and B has the larger recorded half-life at 1 μM value. // respond with label for picked entry
A

###

Below is a list of entries, each paired with its recorded half-life at 1 μM value.
assayText: Stability of JAK3 covalent inhibitors in human whole blood;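 further: parent compound remaining over incubation time quantified by LC-MS/MS as peak area ratio against an internal standard, using pooled K2-EDTA blood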
Assay type: in vitro ADME
measurementParameters: both sexes, whole blood, 37° C., read-out: Human blood stability t1/2

# input molecule: C=CC(=O)N1CCC[C@H]1CNc1cnc2[nH]cc(C(=O)NC(C)C)c2n1 ; wanted: its half-life at 1 μM
> 5.35 h

Do the same for C=CC(=O)N1C[C@H](Nc2ncnc3[nH]ccc23)CC[C@@H]1CO (single isomer, unassigned) please
> 5.56 h
